Where do these numbers come from? They come from ChEMBL document CHEMBL1629563.

# assay: AUC (0 to infinity) in healthy human at 25 mg, po administered as single dose
# Type: ADME, organism-based
# Design: dose 25 mg, route oral, time infinity
# test_parameters: plasma
measured_parameter: AUC(0-inf)

IN: Return reported AUC(0-inf); argument: CCN1c2ncc(CCOc3cc[n+]([O-])c4ccccc34)cc2C(=O)N(C)c2cccnc21
OUT: 142 ng·h/mL

---

# assay: Apparent volume of distribution at steady state in healthy human at 25 mg, po administered as single dose coadministered with 100 mg of ritonavir
# Format: ADME, organism-based
# test_parameters: in vivo, read-out: Vss/F
measured_parameter: Vd/F (L)
Provide only the numeric value, understood in L.

IN: Return reported Vd/F; argument: CCN1c2ncc(CCOc3cc[n+]([O-])c4ccccc34)cc2C(=O)N(C)c2cccnc21
OUT: 102
